Numbers sourced from patent US20220073608A1.

- measured.target: T1, hSEMA4D ECD-His (His-tagged human SEMA4D protein extracellular domain, Met22-Arg734) (human, UniProt Q92854 22-734)
- T1 construct: Expressed in CHO-S cells, purified on Ni column; also called protein immunogen; immunogen A; not shown: His tag of the pCP vector
- T1 sequence: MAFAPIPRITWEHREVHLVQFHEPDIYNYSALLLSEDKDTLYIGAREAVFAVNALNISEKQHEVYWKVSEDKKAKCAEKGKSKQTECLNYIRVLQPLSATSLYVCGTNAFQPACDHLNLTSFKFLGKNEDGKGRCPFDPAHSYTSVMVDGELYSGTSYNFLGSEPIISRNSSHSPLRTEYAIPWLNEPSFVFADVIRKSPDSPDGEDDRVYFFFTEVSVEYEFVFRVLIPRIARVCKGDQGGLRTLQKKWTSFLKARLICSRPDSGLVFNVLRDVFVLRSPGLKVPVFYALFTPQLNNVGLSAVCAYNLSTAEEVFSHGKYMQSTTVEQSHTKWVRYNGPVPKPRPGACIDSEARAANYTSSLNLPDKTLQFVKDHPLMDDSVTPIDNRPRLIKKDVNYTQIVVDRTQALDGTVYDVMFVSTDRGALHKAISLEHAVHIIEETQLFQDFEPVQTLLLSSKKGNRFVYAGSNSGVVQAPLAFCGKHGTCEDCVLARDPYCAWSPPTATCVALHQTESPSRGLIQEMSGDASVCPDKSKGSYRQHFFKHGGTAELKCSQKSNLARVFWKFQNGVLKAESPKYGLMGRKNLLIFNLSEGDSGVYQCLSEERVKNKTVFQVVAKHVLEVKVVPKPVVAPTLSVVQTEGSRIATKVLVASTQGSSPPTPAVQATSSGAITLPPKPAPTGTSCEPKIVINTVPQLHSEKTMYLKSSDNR
- procedure.details: ELISA, coated hSEMA4D ECD-His; Ab 0.00427 nM
Please go through the items and note down their OD450 nm.
One number for each entry.

| binder | OD450 nm |
| --- | --- |
| 31G10C5 (antibody, V domains shown, Mouse monoclonal antibody purified from hybridoma supernatant on protein A) VH: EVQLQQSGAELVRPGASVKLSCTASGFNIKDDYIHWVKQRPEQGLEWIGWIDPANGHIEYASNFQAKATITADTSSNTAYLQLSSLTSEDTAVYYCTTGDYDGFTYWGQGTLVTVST VL: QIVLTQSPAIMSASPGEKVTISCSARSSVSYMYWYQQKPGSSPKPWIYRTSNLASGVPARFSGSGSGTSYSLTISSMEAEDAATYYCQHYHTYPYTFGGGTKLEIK | 0.0915 |
| 42B7G2 (antibody, V domains shown, Mouse monoclonal antibody purified from hybridoma supernatant on protein A) VH: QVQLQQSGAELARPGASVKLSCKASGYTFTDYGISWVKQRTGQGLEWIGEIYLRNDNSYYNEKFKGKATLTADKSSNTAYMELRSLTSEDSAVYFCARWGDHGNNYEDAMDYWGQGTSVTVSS VL: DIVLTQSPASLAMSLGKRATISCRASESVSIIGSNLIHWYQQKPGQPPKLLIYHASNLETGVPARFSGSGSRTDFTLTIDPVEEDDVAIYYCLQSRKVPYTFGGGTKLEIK | 0.0851 |

Could you now consider this next binder?
Requested read-out: OD450 nm. Entry: 37F11F9 (antibody, V domains shown, Mouse monoclonal antibody purified from hybridoma supernatant on protein A) VH: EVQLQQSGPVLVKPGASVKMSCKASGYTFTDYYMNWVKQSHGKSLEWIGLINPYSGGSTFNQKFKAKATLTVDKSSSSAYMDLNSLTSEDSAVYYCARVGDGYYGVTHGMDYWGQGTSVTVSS VL: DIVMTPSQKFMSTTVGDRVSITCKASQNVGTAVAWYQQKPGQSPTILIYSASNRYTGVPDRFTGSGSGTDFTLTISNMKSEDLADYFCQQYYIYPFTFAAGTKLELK
0.0638
